# measurement_target: T1, human TIM-3, full length, on cells (human, UniProt Q8TDQ0 22-301)
# T1 construct: Also used here for native TIM-3 on PBMC in the functional rows; also called CHOK1-hTIM-3; HEK293-h TIM-3
# T1 sequence: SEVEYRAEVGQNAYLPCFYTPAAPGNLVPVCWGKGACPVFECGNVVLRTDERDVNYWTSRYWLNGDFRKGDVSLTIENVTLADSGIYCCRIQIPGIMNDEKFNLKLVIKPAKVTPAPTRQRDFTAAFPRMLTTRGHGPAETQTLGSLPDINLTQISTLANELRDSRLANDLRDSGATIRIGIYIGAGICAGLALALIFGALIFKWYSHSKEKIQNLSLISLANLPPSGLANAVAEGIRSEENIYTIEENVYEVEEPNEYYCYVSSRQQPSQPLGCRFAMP
# experiment_notes: FACS, CHOK1-hTIM-3 cells; antibody 40 nM
measurement_name: Mean fluorescence intensity
Lab note: jot down the number only; don't add units.

Problem: Please report Mean fluorescence intensity for the following binder: 7A4F10 (TIM-3 antibody purified from hybridoma, chimeric antibody of Example 2) (antibody, V domains shown, From hybridoma of Harbour H2L2 transgenic mice: human variable regions, rat constant regions) VH: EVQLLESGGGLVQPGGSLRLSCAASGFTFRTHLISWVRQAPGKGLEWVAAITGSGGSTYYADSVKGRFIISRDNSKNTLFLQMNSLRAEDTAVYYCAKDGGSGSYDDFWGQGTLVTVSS VL: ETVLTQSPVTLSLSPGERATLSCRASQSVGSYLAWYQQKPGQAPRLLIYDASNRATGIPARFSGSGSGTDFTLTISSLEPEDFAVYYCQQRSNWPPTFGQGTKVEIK
Result: 144

Problem: Please report Mean fluorescence intensity for the following binder: 57F4E5 (TIM-3 antibody purified from hybridoma, chimeric antibody of Example 2) (antibody, V domains shown, From hybridoma of Harbour H2L2 transgenic mice: human variable regions, rat constant regions) VH: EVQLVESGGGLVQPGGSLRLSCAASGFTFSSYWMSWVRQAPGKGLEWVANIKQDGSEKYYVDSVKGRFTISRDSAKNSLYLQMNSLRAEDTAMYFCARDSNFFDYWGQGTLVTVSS VL: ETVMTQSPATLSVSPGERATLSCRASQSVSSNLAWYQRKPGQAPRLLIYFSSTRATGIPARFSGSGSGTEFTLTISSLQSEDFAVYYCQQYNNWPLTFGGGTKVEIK
Result: 485

Problem: Please report Mean fluorescence intensity for the following binder: 18D2H2 (TIM-3 antibody purified from hybridoma, chimeric antibody of Example 2) (antibody, V domains shown, From hybridoma of Harbour H2L2 transgenic mice: human variable regions, rat constant regions) VH: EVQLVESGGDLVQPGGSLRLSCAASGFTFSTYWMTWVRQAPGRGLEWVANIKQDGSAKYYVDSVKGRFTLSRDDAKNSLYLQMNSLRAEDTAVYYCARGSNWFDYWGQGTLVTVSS VL: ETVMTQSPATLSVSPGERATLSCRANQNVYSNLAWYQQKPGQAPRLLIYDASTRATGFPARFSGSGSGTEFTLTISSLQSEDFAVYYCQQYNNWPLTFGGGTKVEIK
Result: 185

Problem: Please report Mean fluorescence intensity for the following binder: 134H3G6 (TIM-3 antibody purified from hybridoma, chimeric antibody of Example 2) (antibody, V domains shown, From hybridoma of Harbour H2L2 transgenic mice: human variable regions, rat constant regions) VH: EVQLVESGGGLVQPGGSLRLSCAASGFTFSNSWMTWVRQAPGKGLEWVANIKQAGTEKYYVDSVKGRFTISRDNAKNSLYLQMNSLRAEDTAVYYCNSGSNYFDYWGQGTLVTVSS VL: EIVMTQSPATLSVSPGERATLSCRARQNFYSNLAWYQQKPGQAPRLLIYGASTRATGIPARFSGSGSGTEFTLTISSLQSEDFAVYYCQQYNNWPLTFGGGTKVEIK
Result: 230
